Values from patent US20090155209A1

- Test Method Notes: Single ascending dose study, fasted and fed: safety and non-compartmental plasma PK
- Format: in vivo, healthy volunteers (human)
- Experimental Setup: human, plasma, oral, 1600 mg, 1600 mg fasted cohort, single dose; read-out: median Cmax
Quantity: Cmax (ng/mL)

CC(C)(C)OC(=O)N[C@H]1CCCCC/C=C\[C@@H]2C[C@@]2(C(=O)NS(=O)(=O)C2CC2)NC(=O)[C@@H]2C[C@@H](OC(=O)N3Cc4cccc(F)c4C3)CN2C1=O 685

---

- Test Method Notes: Single ascending dose study, fasted and fed: safety and non-compartmental plasma PK
- Type: in vivo, healthy volunteers (human)
- Experimental Setup: human, plasma, oral, 1600 mg, Median of 10 subjects; single 1600 mg dose, Fed; read-out: Tmax
Quantity: Tmax

CC(C)(C)OC(=O)N[C@H]1CCCCC/C=C\[C@@H]2C[C@@]2(C(=O)NS(=O)(=O)C2CC2)NC(=O)[C@@H]2C[C@@H](OC(=O)N3Cc4cccc(F)c4C3)CN2C1=O 1.75 h
